Please provide measured IC90 for the entries that follow.
Test system: M. Smegmatis (ATCC607)
Assay: In-vitro anti-bacterial activity against strain M. smegmatis ATCC607
Format: cell-based
Settings: Mycolicibacterium smegmatis, ATCC607, 48 h, 90% inhibitory concentration for bacterial growth, Alamar Blue fluorescence, read-out: IC90 values MSM 1 ATCC607
One number for each entry, in µg/mL.

A selection of reference data follows.
(Q) Report IC90 for CO/N=C/c1ccc2nc(OC)c(C(c3ccccc3)C(O)(CCCCN(C)C)c3ccccc3)cc2c1 (single isomer, unassigned)
(A) 1.6

(Q) Using the record for C=Cc1ccc2nc(OC)c(C(c3ccccc3)C(O)(CCN(C)C)c3cccc4ccccc34)cc2c1 (single isomer, unassigned) [Compound 10] , state its measured IC90.
(A) 8

(Q) Return IC90 for the following compound: COc1nc2ccc(C(=O)N(C)C)cc2cc1C(c1ccccc1)C(O)(CCN(C)C)c1cccc2ccccc12 (single isomer, unassigned)
(A) 0.1

(Q) Given C=Cc1ccc2nc(OC)c(C(c3ccccc3)C(O)(CCN(C)C)c3cccc4ccccc34)cc2c1 (stereo not drawn) [Compound 9] , respond with its IC90.
(A) 0.003

(Q) Identify measured IC90 corresponding to CO/N=C/c1ccc2nc(OC)c(C(c3ccccc3)C(O)(CCN(C)C)c3cccc4ccccc34)cc2c1 (single isomer, unassigned)
(A) 0.3

Now let's try a different one.
(Q) Supply IC90 value. Item: COc1nc2ccc(CN3CCN(C)CC3)cc2cc1C(c1ccccc1)C(O)(CCN(C)C)c1cccc2ccccc12 (single isomer, unassigned)
(A) 2.6

----------
Test system: M. Smegmatis (ATCC607)
Assay: In-vitro anti-bacterial activity against strain M. smegmatis ATCC607
Type: cell-based
Details: 90% inhibitory concentration for bacterial growth, 48 hours, Alamar Blue fluorescence
MEASURED ATTRIBUTE: IC90 values MSM 1 ATCC607 (µg/mL)
Give bare numbers, in µg/mL.

(Q) Hello, please tell me recorded IC90 values MSM 1 ATCC607 for this one: COc1nc2ccc(CN)cc2cc1C(c1ccccc1)C(O)(CCN(C)C)c1cccc2ccccc12 (single isomer, unassigned) [Compound 17]
(A) 0.4

# batch: return IC90 values MSM 1 ATCC607 for each of the 2 compounds below
1. COc1nc2ccc(CN(C)C)cc2cc1C(c1ccccc1)C(O)(CCN(C)C)c1cccc2ccccc12 (single isomer, unassigned) [Compound 21]
2. CC#Cc1ccc2nc(OC)c(C(c3ccccc3)C(O)(CCN(C)C)c3cccc4ccccc34)cc2c1 (single isomer, unassigned) [Compound 13]

(A)
0.7
0.003

----------
System: Enterococcus faecalis (ATCC29212)
Assay: In-vitro anti-bacterial microtitre plate assay, IC90, E. faecalis
Type: cell-based
Settings: 90% inhibitory concentration for bacterial growth, 24 hours, resazurin fluorescence
Please go through the items and note down their IC90 values EFA 29212.
Numbers only, in µg/mL.

(Q) Output measured IC90 values EFA 29212 for this item: COc1nc2ccc(CN)cc2cc1C(c1ccccc1)C(O)(CCN(C)C)c1cccc2ccccc12 (stereo not shown) [Compound 19]
(A) 40.17

(Q) # return recorded IC90 values EFA 29212 for entry CO/N=C/c1ccc2nc(OC)c(C(c3ccccc3)C(O)(CCN(C)C)c3cccc4ccccc34)cc2c1 (single isomer, unassigned) [Compound 25]
(A) 8.46

(Q) Provide one value: measured IC90 values EFA 29212 of COc1nc2ccc(CN)cc2cc1C(c1ccccc1)C(O)(CCN(C)C)c1cccc2ccccc12 (stereo not shown) [Compound 18]
(A) 17.94

(Q) Please indicate IC90 values EFA 29212 recorded for CO/N=C/c1ccc2nc(OC)c(C(c3ccccc3)C(O)(CCN(C)C)c3cccc4ccccc34)cc2c1 (single isomer, unassigned) [Compound 26]
(A) 53.37

(Q) Using known records, supply IC90 values EFA 29212 for C/C=C/c1ccc2nc(OC)c(C(c3ccccc3)C(O)(CCN(C)C)c3cccc4ccccc34)cc2c1 (single isomer, unassigned) [Compound 11]
(A) 51.67

(Q) Quick one: give measured IC90 values EFA 29212 for COc1nc2ccc(N3CCOCC3)cc2cc1C(c1ccccc1)C(O)(CCN(C)C)c1ccccc1 (single isomer, unassigned) [Compound 36]
(A) 51.2

Below: the item to evaluate.
(Q) Consider the molecule CC#Cc1ccc2nc(OC)c(C(c3ccccc3)C(O)(CCN(C)C)c3cccc4ccccc34)cc2c1 (single isomer, unassigned) [Compound 14] and give its recorded IC90 values EFA 29212.
(A) 51.47
